target: CYP2C19 (Homo sapiens, UniProt P33261); experiment: Cytochrome P450 inhibition; type: in vitro ADME
Sequence (P33261 whole entry): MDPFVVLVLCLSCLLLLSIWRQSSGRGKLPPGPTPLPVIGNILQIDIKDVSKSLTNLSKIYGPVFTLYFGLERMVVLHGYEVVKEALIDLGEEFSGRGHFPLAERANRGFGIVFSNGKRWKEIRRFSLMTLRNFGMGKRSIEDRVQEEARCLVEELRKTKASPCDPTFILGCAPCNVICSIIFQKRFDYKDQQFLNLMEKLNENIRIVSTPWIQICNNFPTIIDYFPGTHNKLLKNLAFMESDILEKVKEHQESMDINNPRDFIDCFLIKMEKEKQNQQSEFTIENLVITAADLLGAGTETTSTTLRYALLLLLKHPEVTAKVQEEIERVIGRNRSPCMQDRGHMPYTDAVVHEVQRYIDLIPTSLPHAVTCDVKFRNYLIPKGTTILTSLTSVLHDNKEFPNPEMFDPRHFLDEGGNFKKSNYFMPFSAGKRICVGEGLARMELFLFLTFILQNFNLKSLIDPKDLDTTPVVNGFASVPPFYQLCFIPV
MEASURE_NAME: pIC50
Recall that pIC50 is obtained by taking minus log10 of the concentration measured in molar.

Exercise: Look at this compound and give its reported pIC50. CS(=O)(=O)OC[C@H](O)[C@@H](O)COS(C)(=O)=O [treosulfan, L‐threitol‐1,4‐bis‐methanesulfonate]
Solution: 3.01
